Entries and their pIC50 values follow.
molecular target: human PD-L1 / Human PD-1 (Homo sapiens (Human), UniProt Q9NZQ7); experiment: Enzyme-Linked Immunosorbent Assay (ELISA), PD-1/PD-L1 binding; settings: Table 3; plate-coated human PD-L1, biotinylated human PD-1; read-out: ELISA IC50
Sequence (Q9NZQ7 19-239): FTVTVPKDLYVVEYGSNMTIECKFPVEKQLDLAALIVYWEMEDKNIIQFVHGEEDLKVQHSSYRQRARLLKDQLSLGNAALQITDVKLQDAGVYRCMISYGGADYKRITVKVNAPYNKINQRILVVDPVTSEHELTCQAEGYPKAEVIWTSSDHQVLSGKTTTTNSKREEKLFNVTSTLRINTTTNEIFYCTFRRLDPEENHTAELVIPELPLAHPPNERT
pIC50: −log10 of the molar value.

As a guide, the following entries are already answered.
1. C[C@@](CO)(NCc1cc(Cl)c(O[C@H]2CCc3c(-c4ccc5c(c4F)OCCO5)cccc32)cc1OCc1cncc(C#N)c1)C(=O)O; > 7.00
2. N#Cc1cncc(COc2cc(O[C@H]3CCc4c(-c5ccccc5F)cccc43)c(Cl)cc2CN[C@@H](CO)C(=O)N[C@@H](CO)C(=O)N[C@@H](CO)C(=O)O)c1; > 7.00
3. N#Cc1cncc(COc2cc(O[C@H]3CCc4c(-c5ccc6c(c5F)OCCO6)cccc43)c(Cl)cc2CN[C@@H](CO)C(=O)O)c1; > 7.00
4. CCN(CC)CCCC(C)NCc1cc(Cl)c(O[C@H]2CCc3c(-c4ccccc4F)cccc32)cc1OCc1cncc(C#N)c1 (stereo partly shown); > 7.00
5. N#Cc1cncc(COc2cc(O[C@H]3CCc4c(-c5ccc6c(c5)OCO6)cccc43)c(Cl)cc2CN[C@@H](CO)C(=O)O)c1; > 7.00
6. C[C@@H](O)[C@H](NCc1cc(Cl)c(O[C@H]2CCc3c(-c4ccc5c(c4F)OCCO5)cccc32)cc1OCc1cncc(C#N)c1)C(=O)O; > 7.00
7. Cn1ccnc1CNCc1cc(Cl)c(O[C@H]2CCc3c(-c4ccccc4F)cccc32)cc1OCc1cncc(C#N)c1; 6.30 to 7.00
8. N#Cc1cc(C#N)cc(COc2cc(O[C@H]3CCc4c(-c5ccc6c(c5)OCCO6)cccc43)c(Cl)cc2CN[C@@H](CO)C(=O)O)c1; > 7.00

Input line: Bench note: what pIC50 did N#Cc1cncc(COc2cc(O[C@H]3CCc4c(-c5ccccc5F)cccc43)c(Cl)cc2CNCCCCN(CCO)CCO)c1 show?
Output line: 6.30 to 7.00

Input line: Bench note: what pIC50 did N#Cc1cncc(COc2cc(O[C@H]3CCc4c(-c5ccc6c(c5)OC(F)(F)O6)cccc43)c(Cl)cc2CN[C@@H](CO)C(=O)O)c1 show?
Output line: 4.70 to 6.30

Input line: Bench note: what pIC50 did C[C@H](NC(=O)[C@H](C)NCc1cc(Cl)c(O[C@H]2CCc3c(-c4ccccc4F)cccc32)cc1OCc1cncc(C#N)c1)C(=O)O show?
Output line: > 7.00

Input line: Bench note: what pIC50 did CN(C)CCCCCNCc1cc(Cl)c(O[C@H]2CCc3c(-c4ccccc4F)cccc32)cc1OCc1cncc(C#N)c1 show?
Output line: > 7.00

Input line: Bench note: what pIC50 did N#Cc1cncc(COc2cc(O[C@H]3CCc4c(-c5ccccc5F)cccc43)c(Cl)cc2CN[C@@H]2COC[C@H]2O)c1 show?
Output line: > 7.00

Input line: Bench note: what pIC50 did N#Cc1cncc(COc2cc(O[C@H]3CCc4c(-c5cccc6ccccc56)cccc43)c(Cl)cc2CN[C@@H](CO)C(=O)O)c1 show?
Output line: 6.30 to 7.00

Input line: Bench note: what pIC50 did N#Cc1cncc(COc2cc(O[C@H]3CCc4c(-c5ccc6c(c5F)OCCO6)cccc43)c(Cl)cc2CN[C@@H]2CCC[C@H]2O)c1 show?
Output line: > 7.00

Input line: Bench note: what pIC50 did N#Cc1cncc(COc2cc(O[C@H]3CCc4c(-c5ccccc5F)cccc43)c(Cl)cc2CNc2cncc(CO)c2)c1 show?
Output line: 4.70 to 6.30
